target.entity: Cyclin-dependent kinase 1/cyclin B1 (Homo sapiens, UniProt P06493)
Sequence (P06493 whole entry): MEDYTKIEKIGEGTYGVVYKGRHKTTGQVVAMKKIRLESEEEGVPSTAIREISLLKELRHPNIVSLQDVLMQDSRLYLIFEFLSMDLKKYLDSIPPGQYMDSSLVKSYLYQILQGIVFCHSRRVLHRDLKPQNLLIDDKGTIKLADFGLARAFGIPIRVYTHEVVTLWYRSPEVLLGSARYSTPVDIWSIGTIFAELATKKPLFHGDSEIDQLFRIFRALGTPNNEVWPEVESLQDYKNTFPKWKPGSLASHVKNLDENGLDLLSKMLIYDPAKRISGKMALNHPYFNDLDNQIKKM
Sequence (P14635 whole entry, further chain): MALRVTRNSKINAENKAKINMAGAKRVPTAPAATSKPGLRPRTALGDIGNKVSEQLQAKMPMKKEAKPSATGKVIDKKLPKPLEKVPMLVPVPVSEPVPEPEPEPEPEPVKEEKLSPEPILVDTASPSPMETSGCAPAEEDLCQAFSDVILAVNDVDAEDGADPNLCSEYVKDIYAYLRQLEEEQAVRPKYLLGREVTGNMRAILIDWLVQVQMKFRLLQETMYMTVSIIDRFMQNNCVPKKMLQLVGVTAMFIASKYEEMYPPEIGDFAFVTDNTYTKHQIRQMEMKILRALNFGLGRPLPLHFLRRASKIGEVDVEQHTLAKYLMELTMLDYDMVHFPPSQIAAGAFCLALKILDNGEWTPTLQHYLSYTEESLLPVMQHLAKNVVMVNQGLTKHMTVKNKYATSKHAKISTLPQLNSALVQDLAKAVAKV
test.details: Inhibition of human CDK1/cyclinB using Histone H1 as substrate in presence of [gamma-33P]ATP after 40 mins by scintillation counter method
observed.property: IC50 (µM)

- compound: "CC(C)n1cnc2c(Nc3cccc(Cl)c3)nc(N[C@@H]3CCCC[C@@H]3N)nc21"
  observed.property: "IC50"
  result.qualifier: "="
  recorded.number: 0.674
- compound: "CC(=O)Nc1cc(Cl)cc(Nc2nc(N[C@@H]3CCCC[C@@H]3N)nc3c2ncn3C(C)C)c1"
  observed.property: "IC50"
  result.qualifier: ">"
  recorded.number: 1
- compound: "CC(C)n1cnc2c(Nc3cc(N)cc(Cl)c3)nc(N[C@@H]3CCCC[C@@H]3N)nc21 (racemic)"
  observed.property: "IC50"
  result.qualifier: "="
  recorded.number: 0.973
- compound: "CC(C)n1cnc2c(Nc3cccc(Cl)c3)nc(N[C@H]3CCCC[C@@H]3N)nc21"
  observed.property: "IC50"
  result.qualifier: ">"
  recorded.number: 1
- compound: "CC(C)n1cnc2c(Nc3cc(N)cc(Cl)c3)nc(N[C@@H]3CCCC[C@@H]3N)nc21"
  observed.property: "IC50"
  result.qualifier: "="
  recorded.number: 0.532
- compound: "CCn1cnc2c(Nc3cccc(Cl)c3)nc(N[C@@H]3CCCC[C@@H]3N)nc21 (racemic)"
  observed.property: "IC50"
  result.qualifier: "="
  recorded.number: 0.382
